List of normalized growth values.
ASSAY PROCEDURE: chemical genetic growth profiling, strain panel (AID 1159580);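 note: tested at 20 µM; growth read once vehicle control cultures reached saturation at 30 °C; 1 = growth at the plate median or of vehicle wells; lower values mean less growth of the strain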
TEST CONDITIONS: S. cerevisiae deletion strains, growth OD, locus YAR019C, strain CDC15, hits give low values
Hit rate of the full screen: of about 5,500 compounds, about 2,000 (36%) were called active. About 18% were inconclusive and are not listed. The list shows a part of the results.
MEASURED ENDPOINT: normalized growth

{"columns": ["MOLECULE", "MEASUREMENT"],
 "data": [
  ["O=C(Nc1ccccc1Sc1ccc([N+](=O)[O-])cc1[N+](=O)[O-])C(Cl)(Cl)Cl", "0.972 (inactive)"],
  ["O=C(Nc1ccc(Cl)cc1)SCc1c(Cl)cccc1Cl", "0.985 (inactive)"],
  ["CC(C)(C)C(=O)N(Cc1cccnc1)Cc1ccc(Cl)cc1Cl", "0.998 (inactive)"],
  ["COc1cccc(NC(=S)NC2CC(C)CC(C)(C)C2)c1 (configuration not stated)", "0.986 (inactive)"],
  ["O=C(c1ccc(Cl)cc1)N(Cc1ccccc1)Cc1cccnc1", "0.994 (inactive)"],
  ["O=C(NCCNc1ncc(C(F)(F)F)cc1Cl)C(F)(F)Sc1ccccc1", "0.985 (inactive)"],
  ["Cc1ccc(S(=O)(=O)n2c(Sc3ccc([N+](=O)[O-])cc3[N+](=O)[O-])nc3cc(C)ccc32)cc1", "0.996 (inactive)"],
  ["O=C(c1cccs1)N(Cc1cccnc1)Cc1ccc(Cl)cc1Cl", "0.979 (inactive)"],
  ["Cc1csc(NC(=O)Nc2ccc(C(F)(F)F)cc2)c1Cl", "0.958 (inactive)"],
  ["CCCc1nc(-c2ccccn2)[nH]c(=O)c1CC1CC1", "0.947 (inactive)"],
  ["S=C(Nc1ccc(Cl)cc1)SCc1c(Cl)cccc1Cl", "0.976 (inactive)"],
  ["Cc1ccc(C)c(CSc2nc(C3CCCCC3)c(C#N)c(=O)[nH]2)c1", "0.979 (inactive)"],
  ["Clc1ccc2c(c1)c1ccccc1n2CN1CCOCC1", "0.935 (inactive)"],
  ["Cc1oc(C(C)(C)C)cc1-c1cc(N)n(-c2ccc(I)cc2)n1", "1 (inactive)"],
  ["Nc1ccc(Sc2ccccc2)nc1Sc1ccccc1", "0.947 (inactive)"],
  ["O=S(=O)(NC(=S)Nc1ccc(Cl)c(Cl)c1)c1ccccc1", "1.01 (inactive)"],
  ["CC(C)Cc1ccc(C(C)C(=O)Nc2nn(C)c3ccccc23)cc1 (configuration not stated)", "0.993 (inactive)"],
  ["Fc1ccc(NC(=S)N2CCCN(Cc3ccc(Cl)cc3Cl)CC2)cc1", "0.989 (inactive)"],
  ["Nc1ccccc1C(=O)N/N=C\\c1cc(Br)ccc1O", "0.985 (inactive)"],
  ["N#Cc1c2ccccc2nc2ccccc12", "0.818 (active)"],
  ["CSc1n[nH]c(-c2cc(C(F)(F)F)cc(C(F)(F)F)c2)n1", "0.939 (inactive)"],
  ["Fc1cccc(Cl)c1CSc1n[nH]c(-c2cc(C(F)(F)F)cc(C(F)(F)F)c2)n1", "0.973 (inactive)"]
]}

###

Quick reference for normalized growth among some molecules
ASSAY PROCEDURE: chemical genetic growth profiling, strain panel (AID 1159580);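 note: tested at 20 µM; growth read once vehicle control cultures reached saturation at 30 °C; 1 = growth at the plate median or of vehicle wells; lower values mean less growth of the strain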
TEST CONDITIONS: S. cerevisiae deletion strains, growth OD, locus YKR026C, strain gcn3, hits give low values
Out of some 5,500 compounds screened, about 2,000 (36%) were called active. Roughly 18% stayed inconclusive and do not appear here. Some of the results follow.

{"columns": ["MOLECULE", "normalized growth"],
 "data": [
  ["Cc1cc(O)cc(O)c1C(=O)O", 1.02],
  ["C[C@@H]1CC[C@]2(C(=O)O)CC[C@]3(C)C(=CCC4[C@@]5(C)CC[C@H](O)C(C)(C)C5CC[C@]43C)C2[C@H]1C (some centres undefined)", 0.996],
  ["Cc1cc(O)cc(=O)o1", 0.993],
  ["CO[C@@]12[C@@H]3NC3CN1C1=C(C(=O)C(N)=C(C)C1=O)[C@@H]2COC(N)=O (some centres undefined)", 0.964],
  ["C#C[C@]1(OC(C)=O)CCC2C3CCC4=C/C(=N\\O)CCC4C3CC[C@@]21CC (some centres undefined)", 0.99],
  ["Cc1cc(O)cc(C)c1Cl", 0.952],
  ["CC1(C)CC[C@@]2(C(=O)O)C(C1)C1=CCC3[C@@]4(C)CC[C@H](O)C(C)(C)C4CC[C@@]3(C)[C@]1(C)C[C@@H]2O (some centres undefined)", 0.988],
  ["NC(N)=N/N=C/c1c(Cl)cccc1Cl", 0.991],
  ["NC12CC3CC(CC(C3)C1)C2", 1],
  ["NC(Cc1c[nH]c2ccccc12)C(=O)O (centres undefined)", 1.02],
  ["C[C@H]1[C@H](C)CC[C@]2(CO)CC[C@]3(C)C(=CCC4[C@@]5(C)CC[C@H](O)C(C)(C)C5CC[C@]43C)[C@H]12 (some centres undefined)", 0.997],
  ["CNCc1ccccc1", 1.03],
  ["CCOP(=S)(OCC)Oc1nc(Cl)c(Cl)cc1Cl", 0.957],
  ["CC1(C)CCC2(C(=O)O)CCC3(C)C(=CCC4C5(C)CCC(O)C(C)(C)C5C(O)CC43C)C2C1 (centres undefined)", 1.05],
  ["CC(CC(=O)C1OC1(C)C)C1C(=O)CC2(C)C3=CCC4C(C)(C)C(OC5OCC(O)C(O)C5O)CCC45CC35C(O)CC12C (centres undefined)", 1.03],
  ["Clc1ccccc1C(c1ccccc1)(c1ccccc1)n1ccnc1", 0.0593],
  ["Nc1c2ccccc2nc2ccccc12", 0.968],
  ["Cc1ccnc(NS(=O)(=O)c2ccc(N)cc2)n1", 1.01],
  ["C/C=C(/C)C(=O)O[C@@H]1[C@H](OC(C)=O)[C@@]2(CO)C(CC1(C)C)C1=CCC3[C@@]4(C)CC[C@H](O[C@@H]5O[C@H](C(=O)O)[C@@H](O[C@@H]6O[C@H](CO)[C@@H](O)[C@H](O)[C@H]6O)[C@H](O)[C@H]5O[C@@H]5O[C@H](CO)[C@@H](O)[C@H](O)[C@H]5O)[C@](C)(CO)C4CC[C@@]3(C)[C@]1(C)C[C@H]2O (some centres undefined)", 0.99]
]}
